# System: RXRa DBDmut IVT, anti-RXR (DBD mutation: RXRa K156A/R161A, NR concentration 90 nM)
# ASSAY: PBM binding z-score (relative to random genomic background probes); higher = stronger binding; sequences stand for … in GC…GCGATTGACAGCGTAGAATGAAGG
OUTCOME MEASURE: PBM binding z-score

Known results for sequences:
{"QUERY SEQUENCE": "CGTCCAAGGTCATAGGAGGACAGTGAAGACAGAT", "RESULT": 3.71}
{"QUERY SEQUENCE": "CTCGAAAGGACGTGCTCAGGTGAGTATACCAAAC", "RESULT": 0.19}
{"QUERY SEQUENCE": "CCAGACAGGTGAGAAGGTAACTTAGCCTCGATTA", "RESULT": -0.104}
{"QUERY SEQUENCE": "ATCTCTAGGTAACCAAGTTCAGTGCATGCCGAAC", "RESULT": 1.12}
{"QUERY SEQUENCE": "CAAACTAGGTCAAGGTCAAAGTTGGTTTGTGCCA", "RESULT": 3.1}

Consider the following items and state reported PBM binding z-score for each.
1. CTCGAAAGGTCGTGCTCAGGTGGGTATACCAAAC
2. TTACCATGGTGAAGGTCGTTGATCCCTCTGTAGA
3. CCTAGTTGGTCAGGAGGTCACAGACCGGATATGA
4. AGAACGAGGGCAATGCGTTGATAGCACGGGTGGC
5. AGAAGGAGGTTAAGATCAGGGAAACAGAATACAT
6. CGTCAAAGTACAAGGTAACGTAACAGAAAGCAGC
7. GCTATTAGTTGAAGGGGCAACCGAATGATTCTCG

Result:
1. 1.68
2. -0.163
3. 0.184
4. 1.2
5. 0.0542
6. 0.923
7. 0.928

Taken from the supplement of paper PMC6555819.
